# System: Coxsackievirus B3
# method description: Antiviral activity against Coxsackievirus B3 infected in african green monkey vero cells assessed as inhibition of viral replication by Reed-Muench analysis
# Format: functional, organism-based
# cond: Enterovirus B
I'd be grateful if you could share measured IC50 for these entries.

Batch request: IC50 for each of the following molecules.
1. COc1cc2c[n+](CCc3ccccc3F)ccc2cc1O
2. Cc1ccccc1CC[n+]1ccc2ccc(O)cc2c1
3. COc1ccc2cc[n+](CCc3ccc(F)cc3)cc2c1OC

Response:
> 111 µM
371 µM
> 320 µM

Fill in IC50 for each of the 7 molecules listed.
1. COc1cc2cc[n+](CCc3ccccc3C)cc2cc1OC
2. COc1ccc2cc[n+](CCc3ccccc3)cc2c1OC
3. COc1cc2c[n+](CCc3ccccc3)ccc2c(OC)c1OC
4. COc1ccccc1CC[n+]1ccc2ccc(O)cc2c1
5. NC(=O)c1ncn([C@@H]2O[C@H](CO)[C@@H](O)[C@H]2O)n1
6. Oc1ccc2cc[n+](CCc3ccccc3)cc2c1
7. Oc1ccc2cc[n+](CCc3cccc(Cl)c3)cc2c1

Response:
1. > 323 µM
2. 209 µM
3. > 927 µM
4. > 352 µM
5. 910 µM
6. 25 µM
7. > 38.6 µM
